So I've got a bunch of variants here, and I need their abundance fitness values.
B1: POU domain, class 3, transcription factor 2, residues 262 to 338; numbered along this chain, P20265 (parent)
chain: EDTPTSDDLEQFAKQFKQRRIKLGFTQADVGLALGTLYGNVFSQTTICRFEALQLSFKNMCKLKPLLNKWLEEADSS

- Variants of: B1
- testSummary: abundance fitness (aPCA) (normalised: wild type 0, dead -1); higher = more abundant; growth selection in yeast, the domain comes from the species named
- cond: Homo sapiens
Numbers only.

Field: example entries. Status: answers known.
S77P: 0.003
R20D: -1.05
K14R: -0.077
G24H: -0.466
F57V: -0.033

Would you be so kind as to report abundance fitness for each listed record?
1. Q54T
2. K22A
3. A13C
4. K62V

-0.068
0.009
-0.156
-0.089

Would you be so kind as to report abundance fitness for each listed record?
1. Y38V
2. F25D
3. K14W
4. L71W
5. N40M

-0.103
-0.749
-0.182
-0.465
-0.107

Would you be so kind as to report abundance fitness for each listed record?
1. F16V
2. A28D
3. K17Q
4. K62E
5. I21D

[-0.671, -0.182, -0.025, 0.006, -0.567]

Would you be so kind as to report abundance fitness for each listed record?
1. I21M
2. T46G
3. Q15S

1: 0.01; 2: -0.643; 3: 0.013
